We begin with a simple list: items and their reported IC50.
TARGET UNDER TEST: NEP (prepared from pig kidney cortex) (Sus scrofa, UniProt A0A4X1SQE6)
Sequence (A0A4X1SQE6 entry or part of it): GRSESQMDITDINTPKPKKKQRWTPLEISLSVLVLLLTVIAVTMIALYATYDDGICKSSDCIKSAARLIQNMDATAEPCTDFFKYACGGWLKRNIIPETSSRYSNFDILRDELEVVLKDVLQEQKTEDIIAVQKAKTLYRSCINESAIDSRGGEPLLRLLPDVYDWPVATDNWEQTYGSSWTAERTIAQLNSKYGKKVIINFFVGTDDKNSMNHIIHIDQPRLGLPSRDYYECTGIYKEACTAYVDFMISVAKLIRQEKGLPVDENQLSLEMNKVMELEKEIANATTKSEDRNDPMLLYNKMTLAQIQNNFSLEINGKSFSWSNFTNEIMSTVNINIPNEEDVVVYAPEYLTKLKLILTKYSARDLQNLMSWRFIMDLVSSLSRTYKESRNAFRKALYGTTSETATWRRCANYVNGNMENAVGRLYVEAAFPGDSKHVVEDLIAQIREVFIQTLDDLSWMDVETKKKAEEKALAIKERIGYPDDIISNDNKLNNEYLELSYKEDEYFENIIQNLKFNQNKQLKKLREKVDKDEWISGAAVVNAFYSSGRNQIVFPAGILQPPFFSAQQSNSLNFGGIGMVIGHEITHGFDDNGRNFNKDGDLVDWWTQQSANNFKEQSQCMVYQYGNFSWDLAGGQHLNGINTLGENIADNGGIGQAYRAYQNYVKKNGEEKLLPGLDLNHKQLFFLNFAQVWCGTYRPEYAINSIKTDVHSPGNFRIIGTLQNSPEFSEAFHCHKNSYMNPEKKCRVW
EXPERIMENT: Inhibition of enzymatic breakdown of CNP and VIP by NEP (in vitro enzymatic assay, HPLC)
Assay type: biochemical
CONDITION DETAILS: substrate VIP; 15 min preincubation, 60 min at 37° C.; read-out: inhibition of breakdown of VIP by NEP IC50
OUTCOME MEASURE: IC50 (nM)

| COMPOUND | OUTCOME MEASURE | RECORDED VALUE |
| --- | --- | --- |
| CCOC(=O)[C@H](CCc1cccc2ccccc12)CC1(C(=O)N[C@H]2CCc3ccccc3N(CC(=O)O)C2=O)CCCC1 [compound of Formula III] | IC50 | 4.2 |
| CCOC(=O)C(CCc1ccccc1)CC1(C(=O)NC2CCc3ccccc3N(CC(=O)O)C2=O)CCCC1 (centres unmarked) [compound of Formula II] | IC50 | 3.3 |

====

TARGET UNDER TEST: hSEP (His6-tagged hSEP ectodomain) (Homo sapiens, UniProt Q495T6)
Construct: His6-tagged hSEP ectodomain; His6; purchased Innogenetics, Ghent, Belgium
Sequence (Q495T6 49-779 limits assumed): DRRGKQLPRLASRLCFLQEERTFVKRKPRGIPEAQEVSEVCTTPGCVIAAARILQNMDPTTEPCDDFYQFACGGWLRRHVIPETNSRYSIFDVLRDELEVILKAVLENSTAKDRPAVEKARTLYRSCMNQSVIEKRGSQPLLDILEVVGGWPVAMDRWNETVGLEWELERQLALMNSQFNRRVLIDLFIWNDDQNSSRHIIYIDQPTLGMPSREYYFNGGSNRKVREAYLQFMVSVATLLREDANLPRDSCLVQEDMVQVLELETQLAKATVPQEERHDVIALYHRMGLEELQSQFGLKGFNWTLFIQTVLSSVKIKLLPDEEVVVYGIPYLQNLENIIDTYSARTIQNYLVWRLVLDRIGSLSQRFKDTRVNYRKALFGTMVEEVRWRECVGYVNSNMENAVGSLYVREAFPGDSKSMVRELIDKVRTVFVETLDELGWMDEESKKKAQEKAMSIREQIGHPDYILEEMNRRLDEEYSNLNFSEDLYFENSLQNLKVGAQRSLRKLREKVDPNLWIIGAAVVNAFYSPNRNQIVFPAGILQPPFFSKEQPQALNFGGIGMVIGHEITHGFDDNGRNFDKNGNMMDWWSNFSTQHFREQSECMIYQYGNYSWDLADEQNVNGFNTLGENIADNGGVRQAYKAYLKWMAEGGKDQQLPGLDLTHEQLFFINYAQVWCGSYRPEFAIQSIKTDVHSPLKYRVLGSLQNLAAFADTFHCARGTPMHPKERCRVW
EXPERIMENT: Inhibition of enzymatic breakdown of CNP and VIP by hSEP (in vitro enzymatic assay, HPLC)
Format: biochemical
CONDITION DETAILS: substrate CNP (32-53); 15 min preincubation, 60 min at 37° C.; read-out: inhibition of breakdown of CNP by hSEP IC50
pIC50: −log10 of the molar value.
Recorded pIC50 values for a group of compounds are listed next.

| COMPOUND | BOUND SIGN | pIC50 |
| --- | --- | --- |
| CCOC(=O)[C@H](CCc1cccc2ccccc12)CC1(C(=O)N[C@H]2CCc3ccccc3N(CC(=O)O)C2=O)CCCC1 | = | 8.66 |
| CCOP(=O)(CC1(C(=O)N[C@H]2CCc3ccccc3N(CC(=O)OC(C)(C)C)C2=O)CCCC1)OCc1ccccc1 (stereo partly shown) | = | 8.55 |
| CCOC(=O)C(CCc1ccccc1)CC1(C(=O)NC2CCc3ccccc3N(CC(=O)O)C2=O)CCCC1 (stereo not shown) | = | 9.15 |
| O=C(O)CNC(=O)C(CS)Cc1ccccc1 (racemic) [thiorphan, reference compound] | < | 6.00 |

====

TARGET UNDER TEST: NEP (prepared from pig kidney cortex) (Sus scrofa, UniProt A0A4X1SQE6)
EXPERIMENT: Inhibition of enzymatic breakdown of CNP and VIP by NEP (in vitro enzymatic assay, HPLC)
Type: biochemical
CONDITION DETAILS: inhibition of breakdown of CNP by NEP IC50, substrate CNP (32-53); 15 min preincubation, 60 min at 37° C.
Protocol: 1. Inhibition of Enzymatic Breakdown of CNP and VIP by the Test Compounds The inhibition of the enzymatic breakdown of CNP and VIP by the test compounds of Formula I according to the invention was measured in an enzymatic in vitro assay according to the following protocol: […] All peptides were detected by absorbance at 214 nm (UV spectroscopy). […]
pIC50: −log10 of the molar value.

| COMPOUND | TARGET UNDER TEST | pIC50 |
| --- | --- | --- |
| CCOP(=O)(CC1(C(=O)N[C@H]2CCc3ccccc3N(CC(=O)OC(C)(C)C)C2=O)CCCC1)OCc1ccccc1 (some centres unmarked) | NEP (prepared from pig kidney cortex) (Sus scrofa, UniProt A0A4X1SQE6) | 8.64 |
| O=C(O)CNC(=O)C(CS)Cc1ccccc1 (racemic) [thiorphan, reference compound] | NEP (prepared from pig kidney cortex) (Sus scrofa, UniProt A0A4X1SQE6) | 8.08 |

====

Parameter: pIC50. Scope: all listed entries.
TARGET UNDER TEST: UniProtKB A0A4X1SQE6
EXPERIMENT: Inhibition of enzymatic breakdown of CNP and VIP by NEP (in vitro enzymatic assay, HPLC)
Format: biochemical
CONDITION DETAILS: substrate CNP (32-53); 15 min preincubation, 60 min at 37° C.; read-out: inhibition of breakdown of CNP by NEP IC50
pIC50: −log10 of the molar value.

| COMPOUND | pIC50 |
| --- | --- |
| CCOC(=O)C(CCc1ccccc1)CC1(C(=O)NC2CCc3ccccc3N(CC(=O)O)C2=O)CCCC1 (centres unmarked) [compound of Formula II] | 8.12 |
| CCOC(=O)[C@H](CCc1cccc2ccccc12)CC1(C(=O)N[C@H]2CCc3ccccc3N(CC(=O)O)C2=O)CCCC1 [compound of Formula III] | 8.18 |

====

TARGET UNDER TEST: hSEP (His6-tagged hSEP ectodomain) (Homo sapiens)
Construct: His6-tagged hSEP ectodomain; His6; purchased Innogenetics, Ghent, Belgium
EXPERIMENT: Inhibition of enzymatic breakdown of CNP and VIP by hSEP (in vitro enzymatic assay, HPLC)
Assay type: biochemical
CONDITION DETAILS: substrate VIP; 15 min preincubation, 60 min at 37° C.; read-out: inhibition of breakdown of VIP by hSEP IC50
pIC50: −log10 of the molar value.
Catalogue of pIC50 values

| COMPOUND | BOUND SIGN | pIC50 |
| --- | --- | --- |
| CCOC(=O)C(CCc1ccccc1)CC1(C(=O)NC2CCc3ccccc3N(CC(=O)O)C2=O)CCCC1 (stereo not shown) | = | 8.46 |
| CCOP(=O)(CC1(C(=O)N[C@H]2CCc3ccccc3N(CC(=O)OC(C)(C)C)C2=O)CCCC1)OCc1ccccc1 (stereo partly shown) | = | 8.40 |
| O=C(O)CNC(=O)C(CS)Cc1ccccc1 (racemic) [thiorphan, reference compound] | < | 6.00 |
| CCOC(=O)[C@H](CCc1cccc2ccccc12)CC1(C(=O)N[C@H]2CCc3ccccc3N(CC(=O)O)C2=O)CCCC1 | = | 8.54 |
